Target Or Test System: insulin receptor of C2C12 mouse myoblasts (mouse, UniProt P15208 28-1372)
Sequence (P15208 28-1372): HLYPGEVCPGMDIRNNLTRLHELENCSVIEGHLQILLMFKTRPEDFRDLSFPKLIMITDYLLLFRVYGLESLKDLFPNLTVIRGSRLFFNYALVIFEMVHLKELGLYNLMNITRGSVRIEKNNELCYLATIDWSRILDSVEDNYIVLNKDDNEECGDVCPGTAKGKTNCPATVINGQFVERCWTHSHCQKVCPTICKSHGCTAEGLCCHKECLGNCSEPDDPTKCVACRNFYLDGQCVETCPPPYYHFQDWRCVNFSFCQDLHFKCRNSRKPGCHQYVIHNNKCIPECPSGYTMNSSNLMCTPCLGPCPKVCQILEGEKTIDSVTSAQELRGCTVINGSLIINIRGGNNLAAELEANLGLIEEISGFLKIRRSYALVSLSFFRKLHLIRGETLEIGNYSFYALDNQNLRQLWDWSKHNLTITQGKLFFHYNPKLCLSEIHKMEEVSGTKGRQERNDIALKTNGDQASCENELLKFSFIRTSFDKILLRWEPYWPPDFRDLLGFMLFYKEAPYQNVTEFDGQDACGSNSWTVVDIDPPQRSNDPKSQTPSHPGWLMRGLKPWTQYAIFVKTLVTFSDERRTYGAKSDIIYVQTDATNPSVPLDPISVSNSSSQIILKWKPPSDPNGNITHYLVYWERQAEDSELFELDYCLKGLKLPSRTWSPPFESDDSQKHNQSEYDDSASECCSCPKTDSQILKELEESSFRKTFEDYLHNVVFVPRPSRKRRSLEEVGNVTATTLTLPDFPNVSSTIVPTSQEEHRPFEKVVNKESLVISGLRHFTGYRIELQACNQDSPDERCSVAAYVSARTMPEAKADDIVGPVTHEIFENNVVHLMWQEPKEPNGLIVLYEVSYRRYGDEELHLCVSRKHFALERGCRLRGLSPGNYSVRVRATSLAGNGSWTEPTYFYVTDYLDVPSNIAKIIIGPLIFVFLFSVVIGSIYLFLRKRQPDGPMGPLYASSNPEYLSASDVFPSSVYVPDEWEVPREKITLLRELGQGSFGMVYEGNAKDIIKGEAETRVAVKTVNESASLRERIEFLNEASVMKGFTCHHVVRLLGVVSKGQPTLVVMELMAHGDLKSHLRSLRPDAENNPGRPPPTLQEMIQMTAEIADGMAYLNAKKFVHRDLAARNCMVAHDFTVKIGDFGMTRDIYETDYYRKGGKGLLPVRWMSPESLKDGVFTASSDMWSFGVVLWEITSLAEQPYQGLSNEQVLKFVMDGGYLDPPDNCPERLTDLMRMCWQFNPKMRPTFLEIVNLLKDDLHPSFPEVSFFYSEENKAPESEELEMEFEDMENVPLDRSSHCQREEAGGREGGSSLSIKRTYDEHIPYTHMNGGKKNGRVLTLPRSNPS
Protocol Description: cell-based or functional assay
Assay Endpoint: AKT phosphorylation activity (EC50) in C2C12 mouse myoblasts (HTRF phospho-S473) (nM)
Dear colleague, please return just the value in nM, with no unit written.

INSERT INTO assay_data (binder, measured_result) VALUES
  ('fusion protein 8 (insulin analog 1 + L2 + IgG2 Fc1) (Fc fusion) FVNQHLCGEHLVEALYLVCGERGFHYGGGGGGSGGGGGIVEQCCESICSLEQLENYCGGGGGAGGGGAGGGGAGGGGGECPPCPAPPVAGPSVFLFPPKPKDTLMISRTPEVTCVVVDVSHEDPEVQFNWYVDGVEVHNAKTKPREEQFNSTFRVVSVLTVVHQDWLNGKEYKCKVSNKGLPAPIEKTISKTKGQPREPQVYTLPPSREEMTKNQVSLTCLVKGFYPSDIAVEWESNGQPENNYKTTPPMLDSDGSFFLYSKLTVDKSRWQQGNVFSCSVMHEALHNHYTQKSLSLSPG', 544);

// switching to the query binder
Given item fusion protein 7 (insulin analog 1 + L2 + IgG2 Fc1) (Fc fusion) FVNQHLCGEHLVEALYLVCGERGFHYGGGGGGSGGGGGIVEQCCESICSLEQLENYCGPGPQPGPQPGPQPGPQPGPQPGPQPGPQPGPQECPPCPAPPVAGPSVFLFPPKPKDTLMISRTPEVTCVVVDVSHEDPEVQFNWYVDGVEVHNAKTKPREEQFNSTFRVVSVLTVVHQDWLNGKEYKCKVSNKGLPAPIEKTISKTKGQPREPQVYTLPPSREEMTKNQVSLTCLVKGFYPSDIAVEWESNGQPENNYKTTPPMLDSDGSFFLYSKLTVDKSRWQQGNVFSCSVMHEALHNHYTQKSLSLSPG , the value recorded as its AKT phosphorylation activity (EC50) in C2C12 mouse myoblasts (HTRF phospho-S473) is 280
